Experiment: Cytotoxicity against L6 cells (resazurin, 72 h)
Type: cell-based, rat
Details: rat skeletal myoblasts, mean of at least two replicates; read-out: IC50 Cytotoxicity L6 cells (in parentheses)
Measured parameter: IC50 at 72 h (µM)

| Compound | Measured parameter | Unit descriptor | Measurement |
| --- | --- | --- | --- |
| COc1cc([C@@H]2c3cc4c(cc3[C@H](O)[C@H]3COC(=O)[C@H]23)OCO4)cc(OC)c1OC [Podophyllotoxin, reference compound] | IC50 at 72 h | µM | 0.0096 |
| Nc1nc(N)nc(Nc2ccc([As]3SCC(CO)S3)cc2)n1 (centres unmarked) [Melarsoprol, reference compound] | IC50 at 72 h | µM | 18.2 |
